# Target entity: PARP-HSA enzyme (Homo sapiens (Human), UniProt P09874)
# Sequence (P09874 whole entry): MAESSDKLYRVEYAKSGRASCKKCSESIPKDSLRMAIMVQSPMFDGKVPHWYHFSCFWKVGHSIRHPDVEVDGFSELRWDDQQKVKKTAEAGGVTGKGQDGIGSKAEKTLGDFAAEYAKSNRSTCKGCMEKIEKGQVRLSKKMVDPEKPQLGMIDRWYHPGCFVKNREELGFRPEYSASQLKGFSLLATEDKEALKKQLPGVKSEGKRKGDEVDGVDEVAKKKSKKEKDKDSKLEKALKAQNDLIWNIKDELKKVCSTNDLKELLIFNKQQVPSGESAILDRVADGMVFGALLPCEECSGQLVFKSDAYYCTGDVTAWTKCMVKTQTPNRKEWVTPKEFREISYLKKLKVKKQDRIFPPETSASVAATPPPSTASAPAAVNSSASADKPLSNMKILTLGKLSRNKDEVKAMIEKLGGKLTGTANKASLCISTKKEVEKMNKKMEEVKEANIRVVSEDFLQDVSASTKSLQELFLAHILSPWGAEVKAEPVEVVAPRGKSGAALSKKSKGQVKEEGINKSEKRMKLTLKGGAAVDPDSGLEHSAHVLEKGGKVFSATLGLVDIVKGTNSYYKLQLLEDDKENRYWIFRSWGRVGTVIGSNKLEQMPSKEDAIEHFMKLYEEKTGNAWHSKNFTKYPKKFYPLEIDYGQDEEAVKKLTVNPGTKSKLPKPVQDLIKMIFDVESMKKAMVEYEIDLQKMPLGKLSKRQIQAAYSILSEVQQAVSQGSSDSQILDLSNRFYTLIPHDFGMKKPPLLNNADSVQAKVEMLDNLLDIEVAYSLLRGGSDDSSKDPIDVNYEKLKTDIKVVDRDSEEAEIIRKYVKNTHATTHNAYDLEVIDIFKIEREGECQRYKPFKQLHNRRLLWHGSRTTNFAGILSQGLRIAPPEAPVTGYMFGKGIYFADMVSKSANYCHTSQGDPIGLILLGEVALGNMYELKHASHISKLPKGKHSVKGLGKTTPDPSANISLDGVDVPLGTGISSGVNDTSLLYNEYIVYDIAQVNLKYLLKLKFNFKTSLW
# Assay explanation: PARP assay (chemiluminescent PARP assay kit, Trevigen)
# Format: biochemical
# Condition: 1 uM

- Compound: "COc1ccccc1NC(=O)c1ccc2c(c1)[nH]c(=O)c1ccsc12"
  PARP % inhib @ 1 uM / %: 0
- Compound: "O=c1[nH]c2cc(-c3nn[nH]n3)ccc2c2sccc12"
  PARP % inhib @ 1 uM / %: 39
- Compound: "O=C(Nc1ccccc1)c1ccc2c(c1)[nH]c(=O)c1ccsc12"
  PARP % inhib @ 1 uM / %: 0
- Compound: "O=C(Nc1ccc(N2CCOCC2)cc1)c1ccc2c(c1)[nH]c(=O)c1ccsc12"
  PARP % inhib @ 1 uM / %: 0
- Compound: "COc1ccc(NC(=O)c2ccc3c(c2)[nH]c(=O)c2ccsc23)c(OC)c1"
  PARP % inhib @ 1 uM / %: 0
- Compound: "CN(C)CCn1c(=O)c2ccsc2c2ccc(C(=O)O)cc21"
  PARP % inhib @ 1 uM / %: 5
- Compound: "O=C(O)c1ccc2c3sccc3c(=O)n(CCCO)c2c1"
  PARP % inhib @ 1 uM / %: 21
- Compound: "COC(=O)c1ccc2c(c1)nc(Cl)c1ccsc12 [drawing 695]"
  PARP % inhib @ 1 uM / %: 18
